System: SU-DHL-10
measurement-description: In vitro sensitivity of c-Met point mutation cell line to APL-101
Format: cell-based
setup-conditions: Homo sapiens, SU-DHL10; SU-DHL-10, Lymphoma, p. E168D
pIC50: −log10 of the molar value.
readout-kind: pIC50

The value of pIC50 measured for the compound Cn1cc2cc(C(F)(F)c3nnc4ccc(-c5cnn(C6CC6)c5)nn34)c(F)cc2n1 [APL-101] turned out to be < 5.00

* * *

System: SU-DHL-5
measurement-description: In vitro sensitivity of c-Met point mutation cell line to APL-101
Assay type: cell-based
setup-conditions: Homo sapiens; SU-DHL-5, Lymphoma, p. A347T
pIC50: −log10 of the molar value.
readout-kind: pIC50

The reported pIC50 value, SU-DHL-5, for Cn1cc2cc(C(F)(F)c3nnc4ccc(-c5cnn(C6CC6)c5)nn34)c(F)cc2n1 [APL-101] reads < 5.00

* * *

Test system: SW1573
measurement-description: In vitro sensitivity of c-Met point mutation cell line to APL-101
Format: cell-based
setup-conditions: Homo sapiens; SW1573, Lung, p. E168D
pIC50: −log10 of the molar value.
readout-kind: pIC50

The value of pIC50 measured for the compound Cn1cc2cc(C(F)(F)c3nnc4ccc(-c5cnn(C6CC6)c5)nn34)c(F)cc2n1 turned out to be < 5.00

* * *

Tested on: OE19
measurement-description: In vitro sensitivity of c-Met point mutation cell line to APL-101
Format: cell-based
setup-conditions: Homo sapiens; OE19, Esophagus, p.K6N
pIC50: −log10 of the molar value.
readout-kind: pIC50

The value of pIC50 measured for the molecule Cn1cc2cc(C(F)(F)c3nnc4ccc(-c5cnn(C6CC6)c5)nn34)c(F)cc2n1 [APL-101] turned out to be < 5.00
